System: BV2 microglia
EXPERIMENT_SUMMARY: Cytotoxicity on BV2 microglia by CCK-8 assay
EXPERIMENTAL_SETUP: read-out: Cytotoxic activities on BV2 cells, IC50; BV2 cells, 24 h, CCK-8, OD 450 nm, repeated three times
METRIC_NAME: pIC50
# pIC50: negative log10 of molar concentration; output just the value

Q: Reported pIC50, molecule CC1(C)CCC2(C(=O)O)CCC3(C)C(=CCC4C5(C)CCC(OC6OCC(O)C(OC7OC(CO)C(O)C(O)C7O)C6O)C(C)(C)C5CCC43C)C2C1 (stereo not shown) [Compound 21] : ____
A: 3.51

Q: Now try CC1(C)CC[C@]2(C(=O)O)CC[C@]3(C)C(=CC[C@@H]4[C@@]5(C)CC[C@H](O[C@@H]6O[C@H](CO)[C@@H](O)[C@H](O)[C@H]6O[C@@H]6O[C@H](CO)[C@@H](O)[C@H](O)[C@H]6O)C(C)(C)[C@@H]5CC[C@]43C)[C@@H]2C1 [Compound 24] .
A: 3.72

Q: Now try CC1(C)CC[C@]2(C(=O)O)CC[C@]3(C)C(=CC[C@@H]4[C@@]5(C)CC[C@H](O[C@@H]6OC[C@H](O)[C@H](O)[C@H]6O)[C@@](C)(CO)[C@@H]5CC[C@]43C)[C@@H]2C1 [Compound 7] .
A: 3.91

Q: Now try CC1(C)CC[C@]2(C(=O)O[C@@H]3O[C@H](CO)[C@@H](O)[C@H](O)[C@H]3O)CC[C@]3(C)C(=CC[C@@H]4[C@@]5(C)CC[C@H](O[C@@H]6OC[C@H](O)[C@H](O)[C@H]6O)[C@@](C)(CO)[C@@H]5CC[C@]43C)[C@@H]2C1 [Compound 19, HN-saponin F] .
A: 3.33

Q: Now try CC1(C)CC[C@]2(C(=O)O)CC[C@]3(C)C(=CC[C@@H]4[C@@]5(C)CC[C@H](O[C@@H]6O[C@H](C(=O)O)[C@@H](O)[C@H](O)[C@H]6O)C(C)(C)[C@@H]5CC[C@]43C)[C@@H]2C1 [Compound 8] .
A: 3.97

Q: Now try C[C@@H]1O[C@@H](O[C@H]2[C@H](O[C@H]3CC[C@]4(C)[C@H]5CC=C6[C@@H]7CC(C)(C)CC[C@]7(C(=O)O)CC[C@@]6(C)[C@]5(C)CC[C@H]4C3(C)C)OC[C@H](O)[C@@H]2O)[C@H](O)[C@H](O)[C@H]1O [Compound 18] .
A: 3.69

Q: Now try CC1(C)CC[C@]2(C(=O)O)CC[C@]3(C)C(=CC[C@@H]4[C@@]5(C)CCC(O[C@@H]6O[C@H](C(=O)O)[C@@H](O)[C@H](O)[C@H]6O)[C@@](C)(C=O)[C@@H]5CC[C@]43C)C2C1 (stereo partly shown) [Compound 11, gypsogenin 3-O-glucuronide] .
A: 3.40

====

Test system: BV2 microglia
EXPERIMENT_SUMMARY: Cytotoxicity on BV2 microglia by CCK-8 assay
EXPERIMENTAL_SETUP: read-out: Cytotoxic activities on BV2 cells, IC50; BV2 cells, 24 h, CCK-8, OD 450 nm, repeated three times
METRIC_NAME: pIC50
# pIC50: negative log10 of molar concentration; output just the value

Q: Reported pIC50, compound CC1OC(OC2C(OC3CCC4(C)C(CCC5(C)C4CC=C4C6CC(C)(C)CCC6(C(=O)OC6OC(CO)C(O)C(O)C6O)CCC45C)C3(C)C)OCC(O)C2O)C(O)C(O)C1O (centres unmarked) [Compound 26] : ____
A: 3.80

Q: Now try CC1(C)CC[C@]2(C(=O)O)CC[C@]3(C)C(=CC[C@@H]4[C@@]5(C)CC[C@H](O[C@@H]6OC[C@H](O)[C@H](O)[C@H]6O[C@@H]6O[C@H](CO)[C@@H](O)[C@H](O)[C@H]6O)C(C)(C)[C@@H]5CC[C@]43C)[C@@H]2C1 [Compound 20, saponin PE] .
A: 3.87

====

Exercise: state measured IC50 at 24 h for each of the compounds provided.
EXPERIMENT_SUMMARY: Cytotoxicity on BV2 microglia by CCK-8 assay
EXPERIMENTAL_SETUP: mouse, BV2 microglia cells

Q: Reported IC50 at 24 h, compound CC1(CO)CCC2(C(=O)O)CCC3(C)C(=CCC4C5(C)CCC(OC6OCC(O)C(OC7OC(CO)C(O)C(O)C7O)C6O)C(C)(C)C5CCC43C)C2C1 (centres unmarked) [Compound 1] : ____
A: 143 µM

Q: Now try CC1(C(=O)O)CCC2(C(=O)O)CCC3(C)C(=CCC4C5(C)CCC(OC6OCC(O)C(O)C6OC6OC(CO)C(O)C(O)C6O)C(C)(C)C5CCC43C)C2C1 (centres unmarked) [Compound 4] .
A: 246 µM

Q: Now try COC(=O)C1OC(OC2CCC3(C)C(CCC4(C)C3CCC3C5=CC(C)(C)CCC5(C(=O)O)CCC34C)C2(C)CO)C(O)C(O)C1O (centres unmarked) [Compound 5] .
A: 236 µM

Q: Now try CC1OC(OC2C(OC3CCC4(C)C(CCC5(C)C4CC=C4C6CC(C)(O)CCC6(C(=O)O)CCC45C)C3(C)C)OCC(O)C2O)C(O)C(O)C1O (centres unmarked) [Compound 3] .
A: 150 µM

Q: Now try CCOC(=O)C1OC(OC2CCC3(C)C(CCC4(C)C3CC=C3C5CC(C)(C)CCC5(C(=O)OC5OC(CO)C(O)C(O)C5O)CCC34C)C2(C)CO)C(O)C(O)C1O (centres unmarked) [Compound 2] .
A: 157 µM

====

Exercise: state measured pIC50 for each of the molecules provided.
Tested on: NO production in LPS-induced BV2 microglia
EXPERIMENT_SUMMARY: NO production inhibition in LPS-induced BV2 microglia (Griess reaction)
Assay type: cell-based
EXPERIMENTAL_SETUP: Mus musculus, BV-2; read-out: Inhibitory effects on NO in LPS-induced BV-2 cells, IC50
pIC50: −log10 of the molar value.

Q: Reported pIC50, molecule CC1OC(OC2C(OC3CCC4(C)C(CCC5(C)C4CC=C4C6CC(C)(O)CCC6(C(=O)O)CCC45C)C3(C)C)OCC(O)C2O)C(O)C(O)C1O (stereo not drawn) : ____
A: < 4.00

Q: Now try CCOC(=O)C1OC(OC2CCC3(C)C(CCC4(C)C3CC=C3C5CC(C)(C)CCC5(C(=O)OC5OC(CO)C(O)C(O)C5O)CCC34C)C2(C)CO)C(O)C(O)C1O (stereo not drawn) .
A: < 4.00

Q: Now try CC1(C(=O)O)CCC2(C(=O)O)CCC3(C)C(=CCC4C5(C)CCC(OC6OCC(O)C(O)C6OC6OC(CO)C(O)C(O)C6O)C(C)(C)C5CCC43C)C2C1 (stereo not drawn) .
A: < 4.00

====

Tested on: NO production in LPS-induced BV2 microglia
EXPERIMENT_SUMMARY: NO production inhibition in LPS-induced BV2 microglia (Griess reaction)
Type: cell-based
EXPERIMENTAL_SETUP: Mus musculus, BV-2; read-out: Inhibitory effects on NO in LPS-induced BV-2 cells, IC50
Exercise: state measured IC50 for each of the compounds provided.

Q: Reported IC50, compound CC1(CO)CCC2(C(=O)O)CCC3(C)C(=CCC4C5(C)CCC(OC6OCC(O)C(OC7OC(CO)C(O)C(O)C7O)C6O)C(C)(C)C5CCC43C)C2C1 (stereo not drawn) [Compound 1] : ____
A: > 100 µM

Q: Now try O=c1c(O)c(-c2ccc(O)c(O)c2)oc2cc(O)cc(O)c12 [Quercetin, reference compound] .
A: 10.5 µM

Q: Now try COC(=O)C1OC(OC2CCC3(C)C(CCC4(C)C3CCC3C5=CC(C)(C)CCC5(C(=O)O)CCC34C)C2(C)CO)C(O)C(O)C1O (stereo not drawn) [Compound 5] .
A: < 100 µM
